AUC overview
- protocol_notes: Pharmacokinetic test in mice
- Format: in vivo
- protocol_conditions: male, ICR, mouse, po, administration i.g. (10 mg/kg), plasma
quantity: AUC

compound	meas_value
COc1cc(N2CCC(CN3CCN(c4ccc5c(c4)C(=O)N(C4CCC(=O)NC4=O)C5=O)CC3)CC2)c(-c2cnn(C)c2)cc1Nc1ncc(Cl)c(Nc2ccccc2P(C)(C)=O)n1 (stereo not shown)	81500 ng·h/mL
COc1cc(N2CCC(N3CCN(CCOCC#Cc4cccc5c4CN(C4CCC(=O)NC4=O)C5=O)CC3)CC2)ccc1Nc1ncc(Cl)c(Nc2ccccc2P(C)(C)=O)n1 (stereo not shown) [Control compound A, reference compound]	563 ng·h/mL
COc1cc(N2CCC(CN3CCN(c4ccc5c(c4)C(=O)N(C4CCC(=O)NC4=O)C5=O)CC3)CC2)c(-c2cnn(C)c2)cc1Nc1ncc(Br)c(Nc2ccc(C3CC3)cc2P(C)(C)=O)n1 (stereo not shown)	145000 ng·h/mL
COc1cc(N2CCN(c3ccc4c(c3)C(=O)N(C3CCC(=O)NC3=O)C4=O)CC2)c(-c2cnn(C)c2)cc1Nc1ncc(Cl)c(Nc2ccc(-c3ccccc3)cc2P(C)(C)=O)n1 (stereo not shown)	69800 ng·h/mL
COc1cc(N2CCC3(CCN(c4ccc5c(c4)C(=O)N(C4CCC(=O)NC4=O)C5=O)CC3)CC2)c(-c2cnn(C)c2)cc1Nc1ncc(Br)c(Nc2ccc(F)cc2P(C)(C)=O)n1 (stereo not shown)	93100 ng·h/mL
COc1cc(N2CCC(CN3CCN(c4ccc5c(c4)C(=O)N(C4CCC(=O)NC4=O)C5=O)CC3)CC2)c(-c2cnn(C)c2)cc1Nc1ncc(Br)c(Nc2ccc(F)cc2P(C)(C)=O)n1 (stereo not shown)	86600 ng·h/mL
COc1cc(N2CCN(CC3CCN(c4ccc5c(c4)C(=O)N(C4CCC(=O)NC4=O)C5=O)CC3)CC2)c(-c2cnn(C)c2)cc1Nc1ncc(Cl)c(Nc2ccc(-c3ccccc3)cc2P(C)(C)=O)n1 (stereo not shown)	35900 ng·h/mL
COc1cc(N2CCN(C3CCN(c4ccc5c(c4)C(=O)N(C4CCC(=O)NC4=O)C5=O)CC3)CC2)c(-c2cnn(C)c2)cc1Nc1ncc(Cl)c(Nc2ccc(-c3ccccc3)cc2P(C)(C)=O)n1 (stereo not shown)	33300 ng·h/mL
COc1cc(N2CCN(CC3CCN(c4ccc5c(c4)C(=O)N(C4CCC(=O)NC4=O)C5=O)C3)CC2)c(-c2cnn(C)c2)cc1Nc1ncc(Br)c(Nc2ccc(-c3ccccc3)cc2P(C)(C)=O)n1 (stereo not shown)	70900 ng·h/mL
COc1cc(N2CCC(CN3CCN(c4ccc5c(c4)C(=O)N(C4CCC(=O)NC4=O)C5=O)CC3)CC2)c(-c2cnn(C)c2)cc1Nc1ncc(Br)c(Nc2ccccc2P(C)(C)=O)n1 (stereo not shown)	71000 ng·h/mL
